Protocol summary: In vitro cytotoxicity against human normal cell line (MTT)
Type: cell-based
Condition description: human, WI38 human lung fibroblast cells (normal cell line); WI38; Conc. 50 µM; read-out: Average of Relative viability of cells (%)
Readout: viability at 50 µM

Example entries begin here.
• C/C(=N\NC(=S)Nc1ccc(Cl)cc1)c1cc2ccccc2o1 [Compound 8] = 48.2%
• O=C(/C=C/N1CCCCC1)c1cc2ccccc2o1 [Compound 5] = 57.1%

Consider the molecule shown here: C\C(=N/N=C/C=C/c1ccccc1)c1cc2ccccc2o1 [Compound 12] What is its recorded viability at 50 µM?
52.5%

Consider the molecule shown here: C/C(=N\NC(=O)Nc1ccc(Cl)cc1)c1cc2ccccc2o1 [Compound 7] What is its recorded viability at 50 µM?
76.2%

---

System: Hepatocellular carcinoma (HePG2)
Protocol summary: Antitumor screening using MTT assay
Format: cell-based, human
Condition description: Homo sapiens, Conc. 1.56 µM, read-out: Average of Relative viability of cells (%)
molecules and their reported viability at 1.56 µM
Kindly answer with a numeric value in %, unit omitted.

* O=C(/C=C/N1CCCCC1)c1cc2ccccc2o1 | 100
* C\C(=N/N=C/C=C/c1ccccc1)c1cc2ccccc2o1 | 100

Consider the molecule shown here: `C/C(=N\NC(=S)Nc1ccc(Cl)cc1)c1cc2ccccc2o1` What is its recorded viability at 1.56 µM?
99.5

Consider the molecule shown here: `COc1ccccc1/C=N/N=C(\C)c1cc2ccccc2o1` What is its recorded viability at 1.56 µM?
100

Consider the molecule shown here: `COc1ccc(/C=N/N=C(\C)c2cc3ccccc3o2)cc1OC` What is its recorded viability at 1.56 µM?
100

Consider the molecule shown here: `C/C(=N\NC(=O)Nc1ccc(Cl)cc1)c1cc2ccccc2o1` What is its recorded viability at 1.56 µM?
100

---

molecules and their reported viability at 50 µM
System: mammary gland breast cancer (MCF-7)
Protocol summary: Antitumor screening using MTT assay
Condition description: Homo sapiens, MCF7, read-out: Average of Relative viability of cells (%)
Kindly answer with a numeric value in %, unit omitted.

Example entries begin here.
- C\C(=N/N=C/C=C/c1ccccc1)c1cc2ccccc2o1: 57.1
- O=C(/C=C/N1CCCCC1)c1cc2ccccc2o1: 32.5

# value lookup — system mammary gland breast cancer (MCF-7), readout viability at 50 µM, item `C/C(=N\NC(=S)Nc1ccc(Cl)cc1)c1cc2ccccc2o1`
21.2

# value lookup — system mammary gland breast cancer (MCF-7), readout viability at 50 µM, item `COc1ccccc1/C=N/N=C(\C)c1cc2ccccc2o1`
58

# value lookup — system mammary gland breast cancer (MCF-7), readout viability at 50 µM, item `COc1ccc(/C=N/N=C(\C)c2cc3ccccc3o2)cc1OC`
38.2

# value lookup — system mammary gland breast cancer (MCF-7), readout viability at 50 µM, item `C/C(=N\NC(=O)Nc1ccc(Cl)cc1)c1cc2ccccc2o1`
58

---

Target under test: human VEGFR-2 (Homo sapiens)
Sequence (P35968 20-1356): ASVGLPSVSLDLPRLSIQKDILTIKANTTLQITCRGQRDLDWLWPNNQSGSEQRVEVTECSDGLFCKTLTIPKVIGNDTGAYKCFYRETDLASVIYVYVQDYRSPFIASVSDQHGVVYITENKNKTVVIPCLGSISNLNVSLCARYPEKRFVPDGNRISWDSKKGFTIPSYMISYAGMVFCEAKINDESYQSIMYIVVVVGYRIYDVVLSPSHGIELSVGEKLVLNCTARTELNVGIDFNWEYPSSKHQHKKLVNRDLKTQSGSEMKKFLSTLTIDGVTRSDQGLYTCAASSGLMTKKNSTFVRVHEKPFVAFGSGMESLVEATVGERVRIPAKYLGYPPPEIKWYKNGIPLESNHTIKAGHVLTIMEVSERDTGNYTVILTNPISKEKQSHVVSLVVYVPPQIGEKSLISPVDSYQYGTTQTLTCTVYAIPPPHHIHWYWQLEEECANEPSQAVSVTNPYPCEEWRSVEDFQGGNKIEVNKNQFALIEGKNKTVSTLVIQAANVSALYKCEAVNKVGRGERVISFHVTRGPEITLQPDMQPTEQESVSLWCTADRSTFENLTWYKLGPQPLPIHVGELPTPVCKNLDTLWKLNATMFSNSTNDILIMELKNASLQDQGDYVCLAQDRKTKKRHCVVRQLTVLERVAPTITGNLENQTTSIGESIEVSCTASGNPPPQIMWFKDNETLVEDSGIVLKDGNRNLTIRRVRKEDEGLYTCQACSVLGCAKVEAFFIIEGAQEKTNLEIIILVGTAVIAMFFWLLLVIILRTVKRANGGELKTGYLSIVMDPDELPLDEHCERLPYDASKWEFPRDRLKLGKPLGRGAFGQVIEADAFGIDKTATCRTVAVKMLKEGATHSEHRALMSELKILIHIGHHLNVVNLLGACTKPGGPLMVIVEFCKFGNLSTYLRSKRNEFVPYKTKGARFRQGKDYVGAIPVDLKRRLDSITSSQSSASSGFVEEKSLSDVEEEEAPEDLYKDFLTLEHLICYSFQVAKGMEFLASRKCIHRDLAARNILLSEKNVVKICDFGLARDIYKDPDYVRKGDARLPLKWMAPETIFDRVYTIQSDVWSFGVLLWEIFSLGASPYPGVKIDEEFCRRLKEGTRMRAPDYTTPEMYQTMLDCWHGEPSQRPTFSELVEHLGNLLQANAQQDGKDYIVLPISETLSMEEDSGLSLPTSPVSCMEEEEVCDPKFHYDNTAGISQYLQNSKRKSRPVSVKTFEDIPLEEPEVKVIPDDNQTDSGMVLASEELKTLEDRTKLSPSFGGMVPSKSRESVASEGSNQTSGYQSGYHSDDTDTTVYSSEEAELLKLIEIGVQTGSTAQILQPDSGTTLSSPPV
Protocol summary: Human VEGFR-2 enzyme inhibition assay (ELISA)
Condition description: VEGFR2 IC50 ng/ml, supplement lab report
Readout: IC50

Consider the compound shown here: C/C(=N\NC(=S)Nc1ccc(Cl)cc1)c1cc2ccccc2o1 [Compound 8] What is its recorded IC50?
250 nM

---

Tested on: human prostate cancer (PC3)
Protocol summary: Antitumor screening using MTT assay
Condition description: Homo sapiens, read-out: Average of Relative viability of cells (%)
Readout: viability at 100 µM (%)
Kindly answer with a numeric value in %, unit omitted.

Example entries begin here.
- C\C(=N/N=C/C=C/c1ccccc1)c1cc2ccccc2o1 [Compound 12]: 47.3
- COc1ccc(/C=N/N=C(\C)c2cc3ccccc3o2)cc1OC [Compound 9]: 31.2
- COc1ccccc1/C=N/N=C(\C)c1cc2ccccc2o1 [Compound 10]: 23.5
- O=C(/C=C/N1CCCCC1)c1cc2ccccc2o1 [Compound 5]: 32.9
- C/C(=N\NC(=O)Nc1ccc(Cl)cc1)c1cc2ccccc2o1 [Compound 7]: 50.9

Proceeding to the next compound to report its viability at 100 µM.
Consider the compound shown here: C/C(=N\NC(=S)Nc1ccc(Cl)cc1)c1cc2ccccc2o1 [Compound 8] What is its recorded viability at 100 µM?
19.3

---

compounds and their reported viability at 6.25 µM
Protocol summary: In vitro cytotoxicity against human normal cell line (MTT)
Type: cell-based
Condition description: human, WI38 normal lung fibroblast cells; WI38; Conc. 6.25 µM; read-out: Average of Relative viability of cells (%)
Kindly answer with a numeric value in %, unit omitted.

* COc1ccc(/C=N/N=C(\C)c2cc3ccccc3o2)cc1OC | 99.7

Proceeding to the next compound to report its viability at 6.25 µM.
Consider the compound shown here: `COc1ccccc1/C=N/N=C(\C)c1cc2ccccc2o1` What is its recorded viability at 6.25 µM?
100

---

Tested on: epithelioid carcinoma cervix cancer (Hela)
Protocol summary: Antitumor screening using MTT assay
Condition description: Homo sapiens, HeLa, read-out: Average of Relative viability of cells (%)
molecules and their reported viability at 50 µM
Kindly answer with a numeric value in %, unit omitted.

• COc1ccc(/C=N/N=C(\C)c2cc3ccccc3o2)cc1OC = 28.2

Consider the molecule shown here: `COc1ccccc1/C=N/N=C(\C)c1cc2ccccc2o1` What is its recorded viability at 50 µM?
25.8

Consider the molecule shown here: `O=C(/C=C/N1CCCCC1)c1cc2ccccc2o1` What is its recorded viability at 50 µM?
38.1

Consider the molecule shown here: `C\C(=N/N=C/C=C/c1ccccc1)c1cc2ccccc2o1` What is its recorded viability at 50 µM?
41.8

Consider the molecule shown here: `C/C(=N\NC(=O)Nc1ccc(Cl)cc1)c1cc2ccccc2o1` What is its recorded viability at 50 µM?
56.3

Consider the molecule shown here: `C/C(=N\NC(=S)Nc1ccc(Cl)cc1)c1cc2ccccc2o1` What is its recorded viability at 50 µM?
16

---

compounds and their reported viability at 12.5 µM
Tested on: mammary gland breast cancer (MCF-7)
Protocol summary: Antitumor screening using MTT assay
Condition description: Homo sapiens, MCF7, read-out: Average of Relative viability of cells (%)

Example entries begin here.
- COc1ccc(/C=N/N=C(\C)c2cc3ccccc3o2)cc1OC: 64.2%
- C/C(=N\NC(=S)Nc1ccc(Cl)cc1)c1cc2ccccc2o1: 42.9%
- C\C(=N/N=C/C=C/c1ccccc1)c1cc2ccccc2o1: 81.8%
- COc1ccccc1/C=N/N=C(\C)c1cc2ccccc2o1: 79.3%

Consider the compound shown here: `C/C(=N\NC(=O)Nc1ccc(Cl)cc1)c1cc2ccccc2o1` What is its recorded viability at 12.5 µM?
88.9%

Consider the compound shown here: `O=C(/C=C/N1CCCCC1)c1cc2ccccc2o1` What is its recorded viability at 12.5 µM?
54.9%

---

compounds and their reported viability at 100 µM
Protocol summary: In vitro cytotoxicity against human normal cell line (MTT)
Assay type: cell-based
Condition description: human, WI38 human lung fibroblast cells (normal cell line); WI38; Conc. 100 µM; read-out: Average of Relative viability of cells (%)
Kindly answer with a numeric value in %, unit omitted.

- O=C(/C=C/N1CCCCC1)c1cc2ccccc2o1: 38.2
- C/C(=N\NC(=S)Nc1ccc(Cl)cc1)c1cc2ccccc2o1: 36.4

Consider the compound shown here: `C/C(=N\NC(=O)Nc1ccc(Cl)cc1)c1cc2ccccc2o1` What is its recorded viability at 100 µM?
55.5

Consider the compound shown here: `C\C(=N/N=C/C=C/c1ccccc1)c1cc2ccccc2o1` What is its recorded viability at 100 µM?
41

---

System: human prostate cancer (PC3)
Protocol summary: Antitumor screening using MTT assay
Condition description: Homo sapiens, read-out: Average of Relative viability of cells (%)
Readout: viability at 25 µM (%)
Kindly answer with a numeric value in %, unit omitted.

Example entries begin here.
- O=C(/C=C/N1CCCCC1)c1cc2ccccc2o1: 58.1
- C/C(=N\NC(=O)Nc1ccc(Cl)cc1)c1cc2ccccc2o1: 76.5
- COc1ccc(/C=N/N=C(\C)c2cc3ccccc3o2)cc1OC: 52.6
- C\C(=N/N=C/C=C/c1ccccc1)c1cc2ccccc2o1: 71.7
- COc1ccccc1/C=N/N=C(\C)c1cc2ccccc2o1: 46.8

Proceeding to the next compound to report its viability at 25 µM.
Consider the compound shown here: `C/C(=N\NC(=S)Nc1ccc(Cl)cc1)c1cc2ccccc2o1` What is its recorded viability at 25 µM?
39.2

---

Readout: melting point

Example entries begin here.
• O=C(/C=C/N1CCCCC1)c1cc2ccccc2o1 = 136 to 138 °C
• C/C(=N\NC(=S)Nc1ccc(Cl)cc1)c1cc2ccccc2o1 = 207 to 209 °C
• C\C(=N/N=C/C=C/c1ccccc1)c1cc2ccccc2o1 = 141 to 143 °C
• COc1ccccc1/C=N/N=C(\C)c1cc2ccccc2o1 = 154 to 156 °C
• C/C(=N\NC(=O)Nc1ccc(Cl)cc1)c1cc2ccccc2o1 = 235 to 237 °C

Consider the compound shown here: `C/C(=N\N=C\c1ccc(O)cc1)c1cc2ccccc2o1` What is its recorded melting point?
154 to 156 °C

Consider the compound shown here: `COc1ccc(/C=N/N=C(\C)c2cc3ccccc3o2)cc1OC` What is its recorded melting point?
130 to 132 °C
